Across several studies, compounds have been characterized by their IC50 on Insulin-like growth factor 1 receptor (Homo sapiens, UniProt P08069); a selection follows.
valueType: IC50

INSERT INTO assay_data (givensmiles, recordedvalue) VALUES
  ('Cc1cccc(-c2ccnc3[nH]cc(CNS(=O)(=O)C(F)(F)F)c23)c1', '≤ 10 µM'),
  ('C[C@]1(O)C[C@@H](n2nc(-c3ccc4ccc(-c5ccccn5)nc4c3F)c(C(N)=O)c2N)C1', '0.1 to 1 µM'),
  ('CN1CCC(N2C(=O)c3cc4nc(-c5c(NN)ccnc5O)[nH]c4cc3C2=O)CC1', '5 to 15 µM'),
  ('NC(=O)c1c(-c2ccc3ccc(-c4ccccc4)nc3c2)nn(C2COC2)c1N', '1 to 20 µM');
